# TEST_SYSTEM: Mannose-6-phosphate isomerase (Homo sapiens) (UniProt P34949)
# Sequence (P34949 whole entry, looked up): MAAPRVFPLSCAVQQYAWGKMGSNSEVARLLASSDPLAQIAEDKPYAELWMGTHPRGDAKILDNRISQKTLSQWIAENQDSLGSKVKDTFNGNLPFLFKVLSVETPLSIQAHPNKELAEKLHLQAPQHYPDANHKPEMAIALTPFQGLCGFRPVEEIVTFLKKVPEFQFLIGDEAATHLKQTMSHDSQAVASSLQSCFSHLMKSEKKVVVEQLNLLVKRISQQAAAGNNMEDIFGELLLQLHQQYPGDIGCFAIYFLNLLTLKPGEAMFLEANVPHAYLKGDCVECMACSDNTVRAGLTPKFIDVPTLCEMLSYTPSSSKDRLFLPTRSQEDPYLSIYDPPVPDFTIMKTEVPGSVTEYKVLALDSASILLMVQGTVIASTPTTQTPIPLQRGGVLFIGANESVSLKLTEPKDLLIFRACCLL
# MEASUREMENT_PROTOCOL: MPI inhibition at elevated mannose 6-phosphate – biochemical, fluorescence intensity, high mannose 6-phosphate, primary screen (AID 1220)
# MEASUREMENT_CONDITIONS: recombinant PMI enzyme, coupled fluorescence intensity; at 20 µM; active compounds read high
The whole screen tested about 190,000 compounds, of which about 1,300 (0.68%) were called active. For the sample, actives were picked, then their nearest neighbours and some compounds at random.
MEASURED_ENDPOINT: inhibition (%)
Report the value in % with no unit label.

Field: example entries. Status: answers known.
>>> df
                                   compound                               test_system  measured_endpoint  result_units   val
0  CCN(CC)S(=O)(=O)c1ccc(Cl)c(NC(=O)c2ccc(C#N)cc2)c1  Mannose-6-phosphate isomerase (Homo sapiens) (UniProt P34949)         inhibition             %  -3.1
1  CCOc1ccccc1N(CC(=O)NC1CCCCC1)C(=O)c1nsc(Cl)c1Cl  Mannose-6-phosphate isomerase (Homo sapiens) (UniProt P34949)         inhibition             %   8.5
2  COc1ccc(N2CCN(C(c3cccs3)C(C)NS(=O)(=O)c3ccccc3)CC2)cc1 (stereo not given)  Mannose-6-phosphate isomerase (Homo sapiens) (UniProt P34949)         inhibition             %  20.1
3  CC(c1ccco1)N(C(=O)c1ccc(C(F)(F)F)cc1)c1ccccn1 (stereo not given)  Mannose-6-phosphate isomerase (Homo sapiens) (UniProt P34949)         inhibition             %   8.9
4  COc1ccc(Nc2nnc(Cc3ccc(Cl)cc3)c(=O)[nH]2)c(OC)c1  Mannose-6-phosphate isomerase (Homo sapiens) (UniProt P34949)         inhibition             %  19.1
5      Nc1ccccc1C(=O)N=Nc1[nH]c(N)c2ccccc12  Mannose-6-phosphate isomerase (Homo sapiens) (UniProt P34949)         inhibition             %   9.9
6         CCc1ccc2c(c1)c1nc(C)sc1n2CC(=O)OC  Mannose-6-phosphate isomerase (Homo sapiens) (UniProt P34949)         inhibition             %   5.8
7      Cc1nc2c3cc(F)ccc3n(Cc3ccc(F)cc3)c2s1  Mannose-6-phosphate isomerase (Homo sapiens) (UniProt P34949)         inhibition             %  53.2

Form: compound = COc1cccc(NC2=NC3(CCCCC3)N=C(N)N2)c1 ; inhibition = -6.8

Form: compound = Cc1nc2c3cc(F)ccc3n(Cc3ccccc3F)c2s1 ; inhibition = 14.7

Form: compound = CCN1/C(=C/c2ccc3cc(C)ccc3[n+]2CC)Sc2cc(C)ccc21 ; inhibition = 15

Form: compound = COc1ccc(/C=N/NC(=O)c2ccncc2)cc1[N+](=O)[O-] ; inhibition = -13.2

Form: compound = CC1(C)Cc2c(sc3nc(-c4cc5ccccc5o4)n(N)c(=O)c23)CO1 ; inhibition = 7

Form: compound = CCCc1ccc(-c2cc(N)n[nH]2)cc1 ; inhibition = -0.8

Form: compound = CC(=O)NC(CCS(C)(=O)=O)C(=O)Nc1ccccc1C (stereo not given) ; inhibition = 3.2

Form: compound = CC1(C)CC(=O)CC(C2(O)C(=O)N(Cc3ccccc3)c3ccccc32)O1 (stereo not given) ; inhibition = 0.6

Form: compound = N#CC1=C(N)Oc2cc(O)c(C=Nc3ccccc3)cc2C1c1ccccc1 (stereo not given) ; inhibition = -4

Form: compound = Cc1ccc(C)n1-c1ccccc1N1CCCCC1 ; inhibition = -1.9

Form: compound = CCCC(=O)Nc1ccc(S(=O)(=O)Nc2cc(C)nc(C)n2)cc1 ; inhibition = 4.9

Form: compound = Cc1ccc(C)n1-c1ccccc1N ; inhibition = 57.3

Form: compound = CC(=O)Nc1nc(C(=O)O)cs1 ; inhibition = 6.8

Form: compound = Cc1ccccc1N=Cc1cc2c(cc1O)OC(N)=C(C#N)C2c1ccccc1 (stereo not given) ; inhibition = 55

Form: compound = COc1ccccc1/C=N/NC(=O)c1ccccc1Cl ; inhibition = 2.7

Form: compound = COc1cccc(CNC(=O)c2nnn(-c3ccc(OC(F)(F)F)cc3)c2N)c1 ; inhibition = -5.4

Form: compound = COc1ccc(N2CCN(C(=O)COc3ccc4ccccc4c3)CC2)cc1 ; inhibition = 6.1

Form: compound = CCOc1cc(-c2cc(N)n[nH]2)cc(OCC)c1OCC ; inhibition = 61.2

Form: compound = COc1cc(OC)c(/C=N/NC(=O)c2ccncc2)cc1Br ; inhibition = -19.4

Form: compound = N#CC1=C(N)Oc2cc(O)ccc2C1c1ccccc1 (stereo not given) ; inhibition = 7.4

====

Recorded measurements of inhibition, one per entry
# TEST_SYSTEM: Mannose-6-phosphate isomerase (Homo sapiens)
# MEASUREMENT_PROTOCOL: MPI inhibition at elevated mannose 6-phosphate – biochemical, fluorescence intensity, high mannose 6-phosphate, primary screen (AID 1220)
# MEASUREMENT_CONDITIONS: recombinant PMI enzyme, coupled fluorescence intensity; at 20 µM; active compounds read high
Out of some 190,000 compounds screened, about 1,300 (0.68%) were called active. What follows is part of a selection rich in actives, with near analogues and random picks from the rest.
Report the value in % with no unit label.

                                compound  measured_endpoint  result_units  val
0  CCN(CC)c1ccc(O)c(C=Nc2ccc(C)c(C)c2)c1         inhibition             %   57

Kindly note: Mannose-6-phosphate isomerase (Homo sapiens), O=C(O)C1Sc2[nH]c(=O)sc2C2c3cc(Cl)ccc3OC(=O)C12 (stereo not drawn) , inhibition value reported: 63.5

Kindly note: Mannose-6-phosphate isomerase (Homo sapiens), Cc1ccc(N=Cc2sccc2C)cc1C , inhibition value reported: 8.8

Kindly note: Mannose-6-phosphate isomerase (Homo sapiens), CC1=CC(C)(C)Nc2ccc(OS(=O)(=O)c3ccc(C)cc3)cc21 , inhibition value reported: 51.5

====

Recorded measurements of inhibition, one per entry
# TEST_SYSTEM: Mannose-6-phosphate isomerase (Homo sapiens)
# MEASUREMENT_PROTOCOL: MPI inhibition at elevated mannose 6-phosphate – biochemical, fluorescence intensity, high mannose 6-phosphate, primary screen (AID 1220)
# MEASUREMENT_CONDITIONS: recombinant PMI enzyme, coupled fluorescence intensity; at 20 µM; active compounds read high
The campaign covered roughly 190,000 compounds. About 1,300 (0.68%) were called active. The list comes from a sample in which actives are over-represented; it also holds close analogues and randomly drawn compounds.
Report the value in % with no unit label.

Field: example entries. Status: answers known.
>>> df
                                   compound  measured_endpoint   val
0  Cc1sc(NC(=O)CCCC(=O)O)c(C(N)=O)c1-c1ccccc1         inhibition  -5.5
1  COCCN=c1scc(-c2cc(OC)c(OC)c(OC)c2)n1/N=C/c1c(C)[nH]c2ccccc12         inhibition  13.7
2  Cc1cc(N2CCN(C)CC2)nc2ccc(NC(=S)NCCN3CCc4ccccc4C3)cc12         inhibition  -3.7
3    O=C1c2ccccc2C(=O)N1Cc1nc(-c2ccccc2)no1         inhibition  -1.3
4  CCOc1ccccc1NC(=O)Cn1nnc(-c2ccc(OCC)c(OCC)c2)n1         inhibition  -1.1
5           COc1ccc(/C=N/Nc2nnc(C)n2N)cc1OC         inhibition  67.2

Kindly note: Mannose-6-phosphate isomerase (Homo sapiens), O=C(O)Cc1ccc(NC(=O)c2cnccn2)cc1 , inhibition value reported: -9.7

====

# TEST_SYSTEM: Mannose-6-phosphate isomerase (Homo sapiens) (UniProt P34949)
# MEASUREMENT_PROTOCOL: MPI inhibition at elevated mannose 6-phosphate – biochemical, fluorescence intensity, high mannose 6-phosphate, primary screen (AID 1220)
# MEASUREMENT_CONDITIONS: recombinant PMI enzyme, coupled fluorescence intensity; at 20 µM; active compounds read high
Among all 190,000 compounds or so, about 1,300 (0.68%) were called active. The list comes from a sample in which actives are over-represented; it also holds close analogues and randomly drawn compounds.
MEASURED_ENDPOINT: inhibition (%)
Report the value in % with no unit label.

Field: example entries. Status: answers known.
In [3]: df
Out[3]:
                                   compound  measured_endpoint  result_units    val
0     CCOC(=O)/C(=N\O)C1=NC(C)(C)Cc2ccccc21         inhibition             %  -11.3
1  CCOc1cccc(N(C(=O)C2COc3ccccc3O2)C(C(=O)NC2CCCCC2)c2ccc(O)cc2)c1 (stereo not given)         inhibition             %   -4.1
2  COc1cc(/C=C(/NC(=O)c2ccccc2)C(=O)Nc2ccccc2)c([N+](=O)[O-])cc1OC         inhibition             %   27.2
3  CC(C)CCNC(=O)C(c1ccc(O)cc1)N(C(=O)C1COc2ccccc2O1)c1cccc(O)c1 (stereo not given)         inhibition             %   60.7
4  COc1ccc(C(=O)Nc2cccc(C(C)=O)c2)c(OC)c1OC         inhibition             %    8.1
5  COc1ccc(S(=O)(=O)Nc2cc(Sc3ncn[nH]3)c(O)c3ccccc23)cc1         inhibition             %   72.4
6  COc1cc([N+](=O)[O-])cc2sc(NC(=O)C(C)(C)C)nc12         inhibition             %     17
7        CCOC(=O)/C(C#N)=C/c1ccc(OC)c(OC)c1         inhibition             %      5
8               COc1ccc(C(C)=O)c2c(O)cccc12         inhibition             %   56.5

Form: compound = COc1ccc(C(=O)c2ccc(OC)c3cccc(O)c23)cc1OC ; inhibition = 14.7
